These measurements were taken from paper PMC4004375.

Method: Cell viability in parental Huh7.5 cells by MTS assay
Format: cell-based
Reported Conditions: human, parental Huh7.5 cells, Huh7.5 Cytotoxicity (%)
Value Type: cytotoxicity at 42 h, 100 µM

The value of cytotoxicity at 42 h, 100 µM measured for the molecule O=C1N/C(=N\c2nnc(-c3ccc(F)cc3)s2)S/C1=C\c1c(Cl)cccc1Cl [Compound 15] turned out to be > 70%

Input O=C(CCl)Nc1nnc(-c2ccc(Cl)cc2)s1 [Compound 6] . Output cytotoxicity at 42 h, 100 µM: > 70%

Per the records, this molecule ( O=C1N/C(=N\c2nnc(-c3ccc(F)cc3)s2)S/C1=C\c1c(F)cccc1Cl [Compound 12] ) has cytotoxicity at 42 h, 100 µM equal to > 70%

Consider O=C(CCl)Nc1nnc(-c2ccc(F)cc2)s1 [Compound 5] . Its measured cytotoxicity at 42 h, 100 µM is > 70%

cytotoxicity at 42 h, 100 µM recorded for this molecule, O=C1N/C(=N\c2nnc(-c3ccc(Cl)cc3)s2)S/C1=C\c1ccccc1Cl [Compound 22] , is 0%
